Values from ChEMBL document CHEMBL1157829

// reported pEC50 per item
- study.system: Sphingosine 1-phosphate receptor 3 (Homo sapiens, UniProt Q99500)
- Sequence (Q99500 whole entry): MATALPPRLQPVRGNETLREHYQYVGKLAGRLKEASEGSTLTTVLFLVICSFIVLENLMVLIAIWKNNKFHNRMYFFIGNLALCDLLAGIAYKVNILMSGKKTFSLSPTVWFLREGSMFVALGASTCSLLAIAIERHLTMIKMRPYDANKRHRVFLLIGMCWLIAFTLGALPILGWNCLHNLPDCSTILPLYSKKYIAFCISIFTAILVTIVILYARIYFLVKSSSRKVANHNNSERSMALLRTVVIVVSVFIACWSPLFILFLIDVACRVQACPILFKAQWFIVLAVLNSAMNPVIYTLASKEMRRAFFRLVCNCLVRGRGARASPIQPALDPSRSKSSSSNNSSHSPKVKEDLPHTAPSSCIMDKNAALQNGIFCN
- test.description: Agonist activity at human recombinant S1P3 receptor expressed in CHO cells by GTPgammaS binding assay
- Assay type: functional, cell-based
pEC50: −log10 of the molar value.
result.type: pEC50

> print(dat)
                               query.smiles                              study.system  result.type  measurement.qualifier  measured.number
1  Cc1cccc(C)c1N1C(=O)/C(=C/c2ccc(O)c(Cl)c2)S/C1=N\C(C)C  Sphingosine 1-phosphate receptor 3 (Homo sapiens, UniProt Q99500)        pEC50                      =             6.51
2  CC/N=C1\S/C(=C\c2ccc(O)c(Cl)c2)C(=O)N1c1ccccc1  Sphingosine 1-phosphate receptor 3 (Homo sapiens, UniProt Q99500)        pEC50                      =             5.91
3  CC(C)/N=C1\S/C(=C\c2ccc(O)cc2)C(=O)N1c1ccccc1  Sphingosine 1-phosphate receptor 3 (Homo sapiens, UniProt Q99500)        pEC50                      =             7.02
4  CCC/N=C1\S/C(=C\c2ccc(O)c(Cl)c2)C(=O)N1c1ccccc1C  Sphingosine 1-phosphate receptor 3 (Homo sapiens, UniProt Q99500)        pEC50                      =             7.09
5  CC(C)/N=C1\S/C(=C\c2ccc(O)c(O)c2)C(=O)N1c1ccccc1  Sphingosine 1-phosphate receptor 3 (Homo sapiens, UniProt Q99500)        pEC50                      <             5.00
